# Test system: DMS 114 small cell lung
# measurementDescription: NCI tumour cell line growth inhibition, 48 h
observationType: TGI

[[record]]
compound = "COc1cc2ccc3c4cc(OC)c(OC(C)C)cc4c[n+](C)c3c2cc1OC"
result = "41.4 µM"

[[record]]
compound = "COc1ccc(NS(=O)(=O)c2ccc(N=C3C=C(Nc4ccc(S(=O)(=O)Nc5ccc(OC)nn5)cc4)C(=O)c4ccccc43)cc2)nn1"
result = "66.7 µM"

[[record]]
compound = "CCC(C)(C)NS(=O)(=O)c1ccccc1"
result = "> 100 µM"


// for each compound in input: emit TGI
1. CSC1SCC2C(=O)N(C)C(C(C)C)C(=O)OCC(NC(=O)c3cnc4ccccc4n3)C(=O)NC(C)C(=O)N(C)C1C(=O)N(C)C(C(C)C)C(=O)OCC(NC(=O)c1cnc3ccccc3n1)C(=O)NC(C)C(=O)N2C (centres undefined)
2. CC1(C)Oc2ccccc2[N+]([O-])=C1c1ccccc1
3. Cc1ccc(-c2cc(=O)c3cc(C)c(C)c(C(=O)O)c3o2)cc1[N+](=O)[O-]
4. Nc1nc(CC2(O)CCCCC2)cc(-c2ccccc2)n1
5. CCOc1ncnc2ccc(Cl)c(I)c12

1: 8.38e-06 µM; 2: > 100 µM; 3: > 100 µM; 4: > 70.6 µM; 5: > 100 µM

Could you share which TGI value was measured for COc1ccc2c(c1)C=C(C(C)(C)C)NS2(=O)=O ? > 100 µM

---

# Test system: KM12 colon
# measurementDescription: NCI tumour cell line growth inhibition, 48 h; in the data active = GI50 below about 0.43 µM; inactive = the rest
Please reply with one of these outcomes: Y (active), N (inactive)

Example results:
[[record]]
compound = "C=C1C(=O)O[C@H]2[C@H]1CC/C(Cn1cc(-c3ccsc3)nn1)=C\\CC[C@@]1(C)O[C@@H]21"
label = "N"

[[record]]
compound = "Cc1nc2ccccc2c(/C=C/c2ccccc2)c1C(=O)/C=C/c1ccccc1"
label = "N"

[[record]]
compound = "COc1c(N2CCN(CN3C(=O)C(=O)c4ccccc43)C(C)C2)c(F)cc2c(=O)c(C(=O)O)cn(C3CC3)c12 (stereo not drawn)"
label = "N"

[[record]]
compound = "N.N.NCCCCCN.O=C([O-])CC(=O)[O-].O=C([O-])CC(=O)[O-].[Pt+4].[Pt+4]"
label = "N"

[[record]]
compound = "CCN(CC)CCOc1ccc(Cc2ccccc2)cc1"
label = "N"


Answer briefly: the call reported for COc1cccc(NC(=O)c2ccc(NC3=C(Cl)C(=O)N(Cc4ccccc4)C3=O)cc2)c1 in this assay. N

Assay result, entry Cc1ccccc1C[P+](c1ccccc1)(c1ccccc1)c1ccccc1 — outcome? N

Give the logged outcome of this assay for the following compound: CN1CCN(Cc2ccc(NC(=O)c3cccc(C#Cc4c(N)ncc5ccc(F)cc45)c3)cc2C(F)(F)F)CC1 Y

---

# System: OVCAR-4 ovarian
# measurementDescription: NCI tumour cell line growth inhibition, 48 h
observationType: TGI

For orientation, consider the following solved cases.
[[record]]
compound = "OC[C@@H](O)[C@H](O)[C@@H](O)/C=N/Nc1ccc(Cl)nn1"
result = "> 100 µM"

[[record]]
compound = "Cc1ccc2c(c1)-c1oc(=O)c(-c3cc4ccccc4oc3=O)cc1C(O)O2 (centres undefined)"
result = "> 100 µM"

[[record]]
compound = "CCNC1=C(NC(=O)CCl)C(=O)c2ccccc2C1=O"
result = "30.7 µM"


Record request: TGI value, item Fc1ccc2c(c1)cc1ccc3cccc4ccc2c1c34 > 100 µM

These entries and their values trace back to PubChem BioAssay (NCI).
